Please respond with reported Ratio WT-kd/clone-kd for every item in the list.
molecular target: T1, canine NGF tagged at the C-terminus with the Flag tag (canine, UniProt A0A8I3PYI3 122-241); experiment: SPR off-rate screen, Fab-SASA on BSA chip
T1 construct: mature; Expressed with baculovirus technology; also called feline NGF (processed form identical)
T1 sequence (A0A8I3PYI3 entry or part of it): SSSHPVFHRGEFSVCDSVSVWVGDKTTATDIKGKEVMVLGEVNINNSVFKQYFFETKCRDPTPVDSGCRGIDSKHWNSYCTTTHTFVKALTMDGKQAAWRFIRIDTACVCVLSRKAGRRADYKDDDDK
Numbers only.

Here's what some known entries look like.
INSERT INTO results (binder, readout_type, recorded_value) VALUES
  ('felinized clone 101 Fab-SASA variant N53M (VL) (Fab, V domains shown, not shown: small tags and cut ends) VH: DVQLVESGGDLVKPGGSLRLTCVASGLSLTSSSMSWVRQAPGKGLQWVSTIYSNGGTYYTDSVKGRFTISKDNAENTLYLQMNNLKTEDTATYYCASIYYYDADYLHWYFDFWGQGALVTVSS VL: EIQMTQSPTSLSASVGDRVTITCRASEGISNNLSWYQQTPGKAPKLLIYATSMLHSGVPSRFSGSGSGTDFTLTISSLQPEDFATYYCQQGYKWPLTFGGGTKLEITR', 'Ratio WT-kd/clone-kd', 1.46),
  ('felinized clone 101 Fab-SASA (wild-type) (Fab, V domains shown, not shown: small tags and cut ends) VH: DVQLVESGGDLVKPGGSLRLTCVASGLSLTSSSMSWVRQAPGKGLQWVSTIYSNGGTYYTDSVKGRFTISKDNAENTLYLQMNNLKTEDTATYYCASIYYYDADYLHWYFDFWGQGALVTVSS VL: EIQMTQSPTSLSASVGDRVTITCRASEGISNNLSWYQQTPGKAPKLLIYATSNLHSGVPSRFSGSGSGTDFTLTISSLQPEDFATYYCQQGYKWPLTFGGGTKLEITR', 'Ratio WT-kd/clone-kd', 1),
  ('felinized clone 101 Fab-SASA variant S30A (VL) (Fab, V domains shown, not shown: small tags and cut ends) VH: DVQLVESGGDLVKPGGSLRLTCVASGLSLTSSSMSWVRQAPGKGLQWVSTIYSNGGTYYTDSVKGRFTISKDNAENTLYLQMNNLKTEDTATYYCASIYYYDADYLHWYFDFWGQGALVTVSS VL: EIQMTQSPTSLSASVGDRVTITCRASEGIANNLSWYQQTPGKAPKLLIYATSNLHSGVPSRFSGSGSGTDFTLTISSLQPEDFATYYCQQGYKWPLTFGGGTKLEITR', 'Ratio WT-kd/clone-kd', 3.23),
  ('felinized clone 101 Fab-SASA variant T60E (VH) (Fab, V domains shown, not shown: small tags and cut ends) VH: DVQLVESGGDLVKPGGSLRLTCVASGLSLTSSSMSWVRQAPGKGLQWVSTIYSNGGTYYEDSVKGRFTISKDNAENTLYLQMNNLKTEDTATYYCASIYYYDADYLHWYFDFWGQGALVTVSS VL: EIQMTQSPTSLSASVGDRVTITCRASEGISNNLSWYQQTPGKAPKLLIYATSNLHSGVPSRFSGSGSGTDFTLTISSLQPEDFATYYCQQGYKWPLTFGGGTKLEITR', 'Ratio WT-kd/clone-kd', 1.38),
  ('felinized clone 101 Fab-SASA variant H55I (VL) (Fab, V domains shown, not shown: small tags and cut ends) VH: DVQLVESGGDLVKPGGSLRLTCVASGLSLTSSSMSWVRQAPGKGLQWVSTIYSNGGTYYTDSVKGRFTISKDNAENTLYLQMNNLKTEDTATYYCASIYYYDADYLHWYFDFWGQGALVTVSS VL: EIQMTQSPTSLSASVGDRVTITCRASEGISNNLSWYQQTPGKAPKLLIYATSNLISGVPSRFSGSGSGTDFTLTISSLQPEDFATYYCQQGYKWPLTFGGGTKLEITR', 'Ratio WT-kd/clone-kd', 2.16);

Note: attention shifts to another entry.
[Q] Requested read-out: Ratio WT-kd/clone-kd. Entry: felinized clone 101 Fab-SASA variant T30R (VH) (Fab, V domains shown, not shown: small tags and cut ends) VH: DVQLVESGGDLVKPGGSLRLTCVASGLSLRSSSMSWVRQAPGKGLQWVSTIYSNGGTYYTDSVKGRFTISKDNAENTLYLQMNNLKTEDTATYYCASIYYYDADYLHWYFDFWGQGALVTVSS VL: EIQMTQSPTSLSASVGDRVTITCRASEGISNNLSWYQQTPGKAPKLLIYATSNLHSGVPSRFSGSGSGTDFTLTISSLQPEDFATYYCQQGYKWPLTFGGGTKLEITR
[A] 1.29
